tested on: IGROV1 ovarian; test: NCI tumour cell line growth inhibition, 48 h; in the data active = GI50 below about 0.43 µM; inactive = the rest
Choose one outcome from this list and give only that: active, inactive

**Q:** I'd appreciate the recorded outcome for O=C1C2=C(C(=O)c3cnccc31)C1C=CC2CC1 (stereo not drawn) from this test.
**A:** inactive

**Q:** I'd appreciate the recorded outcome for O=C(/C=C/c1ccc(C(F)(F)F)cc1)Nc1ccc(C=C2c3ccccc3C(=O)c3ccccc32)cc1 from this test.
**A:** inactive

**Q:** I'd appreciate the recorded outcome for C#CCNC(=S)N/N=C(\C)c1ccccn1 from this test.
**A:** active

**Q:** I'd appreciate the recorded outcome for CN(Cc1ccc(C(F)(F)F)cc1)CC(O)C(=O)Nc1ccc(Cl)cc1 (stereo not drawn) from this test.
**A:** inactive

**Q:** I'd appreciate the recorded outcome for CCCCCCCCOC(=O)c1c(C)[nH]c(/C=C2\N=C(c3ccc[nH]3)C=C2OC)c1C from this test.
**A:** active

**Q:** I'd appreciate the recorded outcome for C=C(C)C1CC/C(C)=C/CC[C@]2(C)O[C@@H]2CCC2=CC1OC2=O (stereo partly drawn) from this test.
**A:** inactive

**Q:** I'd appreciate the recorded outcome for CNNC(=N\S(=O)(=O)c1cc(C)c(Cl)cc1SCc1ccccc1)/N=C/c1ccc([N+](=O)[O-])s1 from this test.
**A:** inactive

**Q:** I'd appreciate the recorded outcome for CC(C)c1nc(N(C)S(C)(=O)=O)nc(-c2ccc(F)cc2)c1/C=C/[C@@H](O)C[C@@H](O)CC(=O)O from this test.
**A:** inactive

**Q:** I'd appreciate the recorded outcome for CN1CCN(Cc2ccc(NC(=O)c3cncc(C#Cc4cnc(N)cc4C#N)c3)cc2C(F)(F)F)CC1 from this test.
**A:** inactive

**Q:** I'd appreciate the recorded outcome for O=C(/C=C/c1ccc(O)c(O)c1)NCc1c[nH]c2ccccc12 from this test.
**A:** inactive

**Q:** I'd appreciate the recorded outcome for C=C1C(=O)O[C@H]2[C@H]1CC/C(COC(=O)NCc1ccc(OC)cc1)=C\CC[C@@]1(C)O[C@@H]21 from this test.
**A:** inactive

**Q:** I'd appreciate the recorded outcome for Cn1cccc1-c1cc(-c2ccccc2)[nH]c(=O)c1C#N from this test.
**A:** inactive

**Q:** I'd appreciate the recorded outcome for O=C(Nc1ccc(-n2ccc3c(NC(=O)c4ccccc4)ncnc32)cc1)c1cccc(C(F)(F)F)c1 from this test.
**A:** inactive

---

system: OVCAR-8 ovarian; assay: NCI tumour cell line growth inhibition, 48 h
Where a SMILES comes first, the peptide text is derived from it. [ ]: non-standard residue; d: D form. The star is where a group is joined. Bn2Val = CC(C)[C@@H](C(=O)*)N(Cc1ccccc1)Cc1ccccc1; NMeV = CN[C@H](C(=O)O)C(C)C; X29 = COc1ccc(CN*)c(OC)c1; dNMeA = CN[C@H](C)C(=O)O
Provide the reported TGI of each item.

**Q:** Fill in the blank: the reported TGI of CCOC(=O)C(NC(=O)CC)(Nc1ccc(S(=O)(=O)Nc2onc(C)c2C)cc1)C(F)(F)F (stereo not given) is ____.
**A:** > 100 µM

**Q:** Fill in the blank: the reported TGI of C#CCNC(=S)N/N=C(\C)c1ccccn1 is ____.
**A:** > 100 µM

**Q:** Fill in the blank: the reported TGI of O=S1(=O)N(Cc2ccccc2)[C@@H](Cc2ccccc2)[C@H](O)[C@H](O)[C@H](Cc2ccccc2)N1Cc1ccccc1 is ____.
**A:** 11.2 µM

**Q:** Fill in the blank: the reported TGI of CC[C@@]1(OC(=O)CN)C(=O)OCc2c1cc1n(c2=O)Cc2c-1nc1cc3c(cc1c2CCl)OCO3 is ____.
**A:** 0.354 µM

**Q:** Fill in the blank: the reported TGI of O=c1c2cc(-c3ccccc3)sc2ncn1Cc1ccc(Cl)c(Cl)c1 is ____.
**A:** > 100 µM

**Q:** Fill in the blank: the reported TGI of Nc1ccc(Nc2cc(=O)[nH]c(=O)[nH]2)cc1 is ____.
**A:** > 100 µM

**Q:** Fill in the blank: the reported TGI of CCOC(=O)CCC1(C(=O)OCC)CCCC1=O (stereo not given) is ____.
**A:** > 100 µM

**Q:** Fill in the blank: the reported TGI of CCC(COC(=O)CC[C@@H](NC(=O)C(C)NC(=O)C(C)OC1C(O)C(CO)OC(OCc2ccccc2)C1NC(C)=O)C(N)=O)NC1c2ccccc2Nc2cccc([N+](=O)[O-])c21 (stereo not given in full) is ____.
**A:** > 100 µM

**Q:** Fill in the blank: the reported TGI of COCC1OC(S(=O)(=O)c2ccccc2)C(O)C(OC)C1OC (stereo not given) is ____.
**A:** > 100 µM

**Q:** Fill in the blank: the reported TGI of [O-][n+]1c(CN2CCCCC2)nc2cccc3c2c1-c1ccccc1-3 is ____.
**A:** 98.2 µM

**Q:** Fill in the blank: the reported TGI of CCCc1c(C(=O)OCC)[nH]c(-c2ccc(-c3[nH]c(C(=O)OCC)c(CCC)c3C(=O)OCC)s2)c1C(=O)OCC is ____.
**A:** > 100 µM

**Q:** Fill in the blank: the reported TGI of COc1ccc(C2OCCN2C)cc1 (stereo not given) is ____.
**A:** > 100 µM

**Q:** Fill in the blank: the reported TGI of O=NN(CCF)C(=O)NC1CC2CCC1C2 (stereo not given) is ____.
**A:** > 100 µM

**Q:** Fill in the blank: the reported TGI of CCCn1cnc2c(SCC(=O)O)nc(N)nc21 is ____.
**A:** > 100 µM

**Q:** Fill in the blank: the reported TGI of CN1CN(c2ccccc2)C2(CCN(CCCCCCF)CC2)C1=O is ____.
**A:** > 100 µM

**Q:** Fill in the blank: the reported TGI of CN(Cc1ccc(C(F)(F)F)cc1)CC(O)C(=O)Nc1ccc(Cl)cc1 (stereo not given) is ____.
**A:** 3.5 µM

**Q:** Fill in the blank: the reported TGI of Cn1cccc1-c1cc(-c2ccccc2)[nH]c(=O)c1C#N is ____.
**A:** > 100 µM

**Q:** Fill in the blank: the reported TGI of CCCCCN(CCCCC)CC(O)c1cc(Cl)ccc1OC (stereo not given) is ____.
**A:** 25.7 µM

**Q:** Fill in the blank: the reported TGI of CN(C)/C=N\c1ccnc(=O)[nH]1 is ____.
**A:** > 100 µM

**Q:** Fill in the blank: the reported TGI of COc1ccc(CNC(=O)[C@@H]2CCCN2C(=O)[C@@H](C)N(C)C(=O)[C@H](C(C)C)N(C)C(=O)[C@@H](NC(=O)[C@H](C(C)C)N(Cc2ccccc2)Cc2ccccc2)C(C)C)c(OC)c1 (Bn2Val-V[NMeV][dNMeA]P-X29) is ____.
**A:** 57.6 µM

**Q:** Fill in the blank: the reported TGI of Cc1c(OCc2ccccc2)c(=O)ccn1CCc1c[nH]c2ccccc12 is ____.
**A:** > 100 µM

**Q:** Fill in the blank: the reported TGI of Cc1ccc(N(O)C(C)(C)C)cc1 is ____.
**A:** > 100 µM

**Q:** Fill in the blank: the reported TGI of COc1ccc(/C=C/C(=O)c2ccc(-n3cc(CN4CCN(c5cc6c(cc5F)c(=O)c(C(=O)O)cn6C5CC5)CC4)nn3)cc2)cc1OC is ____.
**A:** > 100 µM

**Q:** Fill in the blank: the reported TGI of COC(=O)CCC12CCC(=O)C1[C@@H](C(=O)OC)C[C@H]2C(=O)OC (stereo not given in full) is ____.
**A:** > 100 µM

**Q:** Fill in the blank: the reported TGI of Cc1cc(NC(=O)C2C3C=CC(O3)C2C(=O)O)no1 (stereo not given) is ____.
**A:** 32.6 µM

**Q:** Fill in the blank: the reported TGI of O=c1c2ccccc2nc(-c2ccccc2)n1NC(=S)Nc1ccc(Cl)cc1 is ____.
**A:** > 100 µM

**Q:** Fill in the blank: the reported TGI of COC(=O)C(CCC(=O)CCl)N1C(=O)c2ccccc2C1=O (stereo not given) is ____.
**A:** 19 µM

**Q:** Fill in the blank: the reported TGI of Cl/C(N=Nc1ccccc1)=N/Nc1ccccc1 is ____.
**A:** > 100 µM

**Q:** Fill in the blank: the reported TGI of CCN(Cc1cc(F)ccc1F)c1ccc(CO)c(Cl)c1 is ____.
**A:** 36.2 µM

**Q:** Fill in the blank: the reported TGI of NCCCCC1NC(=O)C(CC(=O)O)NC(=O)CNC(=O)C(CCCN=C(N)N)NC(=O)C(N)CSSCC(C(=O)O)NC(=O)C(CC(=O)O)NC(=O)C2CCCN2C(=O)CNC1=O (stereo not given) is ____.
**A:** > 100 µM

**Q:** Fill in the blank: the reported TGI of NC(Cc1c[nH]c2cc([N+](=O)[O-])ccc12)C(=O)O (stereo not given) is ____.
**A:** > 100 µM

**Q:** Fill in the blank: the reported TGI of Cc1cccc2nc3c(=O)[nH]c(=O)nc-3n(C)c12 is ____.
**A:** > 100 µM

**Q:** Fill in the blank: the reported TGI of CCN(CC)CCCNC(=O)c1cc2cc(NC(=O)c3cc4cc([N+](=O)[O-])ccc4[nH]3)ccc2[nH]1 is ____.
**A:** > 100 µM

**Q:** Fill in the blank: the reported TGI of COC(=O)c1c(CC(Cc2ccc3c(c2)CCCC3)C(=O)OC)ccc2c1CCCC2 (stereo not given) is ____.
**A:** > 100 µM

**Q:** Fill in the blank: the reported TGI of CN(C(=O)c1ccc2c(c1)sc1c(=O)n(C)c3ccccc3c12)c1ccccc1 is ____.
**A:** > 100 µM

**Q:** Fill in the blank: the reported TGI of CN(C)c1nc(=NCc2ccco2)ss1 is ____.
**A:** 62.4 µM

**Q:** Fill in the blank: the reported TGI of CN1CCN(Cc2ccc(NC(=O)c3cncc(C#Cc4cnc(N)cc4C#N)c3)cc2C(F)(F)F)CC1 is ____.
**A:** 19 µM

**Q:** Fill in the blank: the reported TGI of NS(=O)(=O)c1ccc(N2N=C3c4ccccc4CC3C2c2cccs2)cc1 (stereo not given) is ____.
**A:** 40.1 µM

**Q:** Fill in the blank: the reported TGI of Cc1ccc(S(=O)(=O)N=NC=C2c3ccccc3N(O)c3ccccc32)cc1 is ____.
**A:** 14.7 µM

**Q:** Fill in the blank: the reported TGI of C1=C/COCc2cc(ccc2OCCN2CCCC2)Nc2nccc(n2)-c2ccc(o2)COC/1 is ____.
**A:** 18.8 µM

This collection of values is drawn from PubChem BioAssay (NCI).
